List of koff values.
Target: T1, human recombinant CD117 (c-Kit) from Sino Biological (Catalog No. 11996-H08H) (human, UniProt P10721 26-524)
T1 construct: also called soluble antigen
T1 sequence (P10721 26-524 limits assumed): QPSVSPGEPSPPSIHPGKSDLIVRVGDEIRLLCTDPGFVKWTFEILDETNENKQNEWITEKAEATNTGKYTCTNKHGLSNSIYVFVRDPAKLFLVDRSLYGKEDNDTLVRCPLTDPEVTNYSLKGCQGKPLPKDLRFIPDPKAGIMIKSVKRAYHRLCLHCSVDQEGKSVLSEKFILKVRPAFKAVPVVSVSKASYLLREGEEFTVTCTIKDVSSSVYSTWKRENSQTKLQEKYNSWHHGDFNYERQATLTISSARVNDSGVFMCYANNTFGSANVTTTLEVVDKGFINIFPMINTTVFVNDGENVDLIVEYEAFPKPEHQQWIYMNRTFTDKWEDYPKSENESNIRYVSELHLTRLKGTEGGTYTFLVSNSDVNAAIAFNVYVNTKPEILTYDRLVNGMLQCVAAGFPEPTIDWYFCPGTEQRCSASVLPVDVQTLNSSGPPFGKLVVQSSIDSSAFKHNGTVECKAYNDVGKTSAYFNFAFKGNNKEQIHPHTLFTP
Test: BLI Octet, IgG on anti-human Fc sensor, soluble CD117, 1:1 fit

binder: HC1 LC5 (antibody, V domains shown, IgG; also called VH1/VL5) VH: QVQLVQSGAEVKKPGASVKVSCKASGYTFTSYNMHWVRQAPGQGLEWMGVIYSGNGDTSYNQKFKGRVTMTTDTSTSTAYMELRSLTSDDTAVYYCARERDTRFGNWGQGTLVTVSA VL: DIQMTQSPSSLSASVGDRVTITCRASESVDIYGNAFMHWYQQKPGKAPKLLIYLASNLESGVPSRFSGSGSGTDFTLTISSLQPEDFATYYCQQANEEPYTFGGGTKLEIK
unit: s⁻¹
koff: 0.00552

binder: Liskamm (antibody, V domains shown, IgG; also called VH5/VL1; HC5 LC1) VH: EVQLVQSGAEVKKPGESLKISCKGSGYTFTSYNMHWVRQMPGKGLEWMGVIYSGNADTSYNQKFKGQVTISADKSISTAYLQWSSLKASDTAMYYCARERDTRFGNWGQGTLVTVSA VL: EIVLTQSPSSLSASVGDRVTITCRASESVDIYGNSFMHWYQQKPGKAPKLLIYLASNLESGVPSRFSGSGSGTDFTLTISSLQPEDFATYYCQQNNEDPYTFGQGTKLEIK
unit: s⁻¹
koff: 0.000961

binder: HC2 LC3 (antibody, V domains shown, IgG; also called VH2/VL3) VH: QVQLVESGAEVKKPGASVKLSCKASGYTFTSYNMHWVRQAPGQRLEWMGVIYSGNGDTSYNQKFKGRVTITVDKSASTAYMELSSLRSEDTAVYYCARERDTRFGNWGQGTLVTVSA VL: DIVMTQSPSTLSASVGDRVTITCRASESVDIYGSSFMHWYQQKPGQPPKLLIYLASNLESGVPSRFSGSGSGTEFTLTISSLEADDVATYYCQQNNEDPYTFGGGTKLEIK
unit: s⁻¹
koff: 0.00458

binder: HC5 LC3 (antibody, V domains shown, IgG; also called VH5/VL3) VH: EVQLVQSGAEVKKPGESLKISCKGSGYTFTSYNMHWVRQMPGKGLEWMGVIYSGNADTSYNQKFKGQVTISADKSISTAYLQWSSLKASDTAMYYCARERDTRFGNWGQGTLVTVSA VL: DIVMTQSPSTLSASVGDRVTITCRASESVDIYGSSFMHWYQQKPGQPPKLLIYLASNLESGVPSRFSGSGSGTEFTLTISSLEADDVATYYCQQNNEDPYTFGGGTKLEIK
unit: s⁻¹
koff: 0.00216

binder: Dufour (antibody, V domains shown, IgG; also called VH1/VL1; HC1 LC1) VH: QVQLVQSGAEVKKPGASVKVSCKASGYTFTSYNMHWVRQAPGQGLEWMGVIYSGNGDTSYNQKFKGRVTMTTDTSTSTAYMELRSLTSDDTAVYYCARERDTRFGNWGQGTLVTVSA VL: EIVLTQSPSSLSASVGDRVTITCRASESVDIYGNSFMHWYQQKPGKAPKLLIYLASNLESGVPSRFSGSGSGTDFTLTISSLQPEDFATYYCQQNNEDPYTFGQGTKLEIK
unit: s⁻¹
koff: 0.000397
